Values were extracted from ChEMBL document CHEMBL4513216.

Assay: Toxicity liver stage against HepG2, at 10uM
Format: cell-based
Design: test concentration 10 uM, cell line HepG2-A16-CD81EGFP
Conditions: human, HepG2-A16-CD81EGFP cells; read-out: INHIBITION
endpoint_name: cytotoxicity at 10 µM (%)
Express it in %; write the number only.

Consider the worked cases shown below.
CC(C)n1nc(CNc2ncccn2)c2c1CN(S(C)(=O)=O)CC2 : -138
Cc1ccccc1CC(=O)N1CC[C@@](O)(CNS(C)(=O)=O)[C@H](O)C1 : -25.6
COC(=O)c1ccc(CNC(C)c2ccc(S(C)(=O)=O)cc2)cc1 (stereo not given) : 5.21
Cc1cnn(CC2CCCN2Cc2cc(=O)n3c(C)csc3n2)c1 (stereo not given) : -2.11

Problem: Give the reported value of cytotoxicity at 10 µM for this record: CC(C)C(=O)N1CC[C@@H]2[C@H](CC1)N(Cc1cccnc1)CCS2(=O)=O
Solution: -7.77

* * *

# reported cytotoxicity at 10 µM; entries follow
Assay: Toxicity liver stage against HepG2, at 10uM
Assay type: cell-based
Set-up: test concentration 10 uM, cell line HepG2-A16-CD81EGFP
Settings: human, HepG2-A16-CD81EGFP cells; read-out: INHIBITION
Expressed in %, but write only the number.

Consider the reported cytotoxicity at 10 µM for these molecules:
COCCN1CCO[C@@H]2CN(S(=O)(=O)c3cccnc3)C[C@@H]2C1 : 16.3
O=C(C1CCOC1)N1CCN(Cc2ccc3c(c2)CCO3)CC1 (stereo unspecified) : 0.28
Cc1csc(C2(NCCC(=O)N3CCOCC3)CCCC2)n1 : -11.4
COCCS(=O)(=O)NC(=O)c1nnn(-c2ccc(F)cc2)c1C1CC1 : 0.188
Cc1ccc(C(=O)N2CC[C@]3(C[C@@H](OCc4ccccn4)CO3)C2)nc1 : -74.6

Pending molecule:
Problem: Tell me measured cytotoxicity at 10 µM for CCC1c2ccsc2CCN1C(=O)NCc1ccnc(N(C)C)c1 (stereo unspecified) please.
Solution: -11.9

* * *

Assay: Toxicity liver stage against HepG2, at 10uM
Format: cell-based
Design: test concentration 10 uM, cell line HepG2-A16-CD81EGFP
Details: human, HepG2-A16-CD81EGFP cells; read-out: INHIBITION
endpoint_name: cytotoxicity at 10 µM (%)
// return numeric value only (unit: %, not printed)

Reference set, count: 10
Cc1cc(-c2ccc(=O)n(C3CCN(S(C)(=O)=O)CC3)n2)c(C)o1 : 3.62
COc1ccc(-c2nnc([C@H]3CCN(CC(C)(C)C)C3)o2)cc1 : -3.43
O=C(c1cc(=O)[nH]c(=O)[nH]1)N1CCCC(CO)(CC2CC2)C1 (configuration not stated) : -3.02
Cc1csc(CN2C[C@H](NC(=O)C3CCOCC3)[C@@H](C(C)C)C2)n1 : 6.99
COC(=O)c1cc(NCc2cscn2)ccc1C : 5.17
Cc1nn(C)c(C)c1NC(=O)CN1CCc2c(nc(C3CC3)n2C)C1 : -5.31
Cn1ncc(N2CCC(CNC(=O)[C@@H](N)c3ccccc3)CC2)cc1=O : 4.18
Cc1cnn(CCNCc2nnc(Cc3ccccc3)o2)c1 : -8.63
CN1CCN(c2ncnc3c2CCN(S(=O)(=O)C2CC2)CC3)CC1 : -112
Cc1ccc(N2CC3(COCCN(Cc4nccs4)C3)OCC2=O)s1 (configuration not stated) : -13.5

# next compound below
Problem: Quote cytotoxicity at 10 µM reported for COc1ccc(CN2CCN(c3ncc(Cl)cn3)CC2)cc1 please.
Solution: -4.86
